- target_under_test: mAChR M1 (UniProt P11229)
- assay_comment: mAChR M1 cell-based functional assay (calcium mobilization, potentiation of EC20 acetylcholine response)
- condition_notes: positive allosteric modulation of EC20 ACh response, mAChR M1 CHO-K1 cells; <5 estimated where no plateau
Readings of pEC50 for the listed compounds
Respond numerically, and do not add a unit to the figure.

Sample records with pEC50:
INSERT INTO results (smiles_repr, recorded_number) VALUES
  ('Cc1cc(-c2ccc(CN3Cc4ncccc4C3=O)c(F)c2)cnc1Cl', 5.99),
  ('O=C1c2cccnc2CN1Cc1ccc(-c2cccc3ncccc23)cc1F', 5.44),
  ('Cn1cc2cc(-c3ccc(CN4Cc5ncccc5C4=O)cc3)ccc2n1', 6.30),
  ('COc1cc(-c2cccc3nn(C)cc23)ccc1CN1Cc2ncccc2C1=O', 5.82);

# `Cn1cc2cc(-c3ccc(F)c(CN4Cc5ncccc5C4=O)c3)ccc2n1` with mAChR M1 (UniProt P11229): pEC50 is 5.63

# pEC50 measured on mAChR M1 (UniProt P11229) for item `Cn1cc(-c2ccc(CN3Cc4cc(F)cc(F)c4C3=O)c(F)c2)cn1` = 5.59

Kindly note: mAChR M1 (UniProt P11229), `O=C1c2ncccc2CN1Cc1ccc(-c2ccc3ccncc3c2)cc1F` , pEC50 value reported: 5.68

So the reported pEC50 for `O=C1c2ncccc2CN1Cc1ccc(-c2ccc3cnccc3c2)cc1F` , on mAChR M1 (UniProt P11229), turned out to be 5.83

Hey, mAChR M1 (UniProt P11229) data for `O=C1c2ncccc2CN1Cc1ccc(-c2cnc3ccccc3c2)cc1F` : pEC50 came out at 5.84

Record `Cn1cc2c(-c3ccc(F)c(CN4Cc5ncccc5C4=O)c3)cccc2n1` ; system mAChR M1 (UniProt P11229); pEC50 = 5.71

Value (pEC50, mAChR M1 (UniProt P11229)) for record `COc1ccc(-c2ccc(CN3Cc4cccnc4C3=O)c(Cl)c2)cc1` = 5.83

Tested on mAChR M1 (UniProt P11229): `O=C1c2cccnc2CN1Cc1ccc(-c2cnc3ccccn23)cc1F` . Observed pEC50: 5.53

Kindly note: mAChR M1 (UniProt P11229), `CN1CCc2cc(-c3ccc(CN4Cc5ncccc5C4=O)c(F)c3)ccc21` , pEC50 value reported: 5.64

`CN(C)c1ccc(-c2ccc(CN3Cc4cccnc4C3=O)c(Cl)c2)cn1` tested on mAChR M1 (UniProt P11229) gave pEC50: 5.73

# `O=C1c2cccnc2CN1Cc1ccc(-c2ccc3nccn3c2)cc1F` with mAChR M1 (UniProt P11229): pEC50 is 5.68

Record `Cn1cc2ccc(-c3ccc(F)c(CN4Cc5ncccc5C4=O)c3)cc2n1` / mAChR M1 (UniProt P11229), pEC50 recorded as 5.07

Reported pEC50 (mAChR M1 (UniProt P11229)) for entry `O=C1c2cccnc2CN1Cc1c(F)cc(-c2ccc3cnccc3c2)cc1F` is 6.23

Item `O=C1c2cccnc2CN1Cc1ccc(-c2ccc3cncn3c2)cc1F` ; assay system mAChR M1 (UniProt P11229); pEC50 reported as 6.06

Record `Cc1nn(C)cc1-c1ccc(CN2Cc3ccccc3C2=O)c(F)c1` / mAChR M1 (UniProt P11229), pEC50 recorded as 5.82

pEC50 on mAChR M1 (UniProt P11229) for `CN(C)c1ccc(-c2ccc(CN3Cc4ncccc4C3=O)c(F)c2)cn1` is 5.98

For the compound `O=C1c2ccccc2CN1Cc1ccc(-c2ccc3cnccc3c2)cc1F` , the measured pEC50 on mAChR M1 (UniProt P11229) was 5.59

Note to self: pEC50 of `O=C1Cc2cc(-c3cc(F)c(CN4Cc5ncccc5C4=O)c(F)c3)ccc2N1` with mAChR M1 (UniProt P11229) was 6.51
